target: PADI4 (Homo sapiens, UniProt Q9UM07); construct: His6; made in house; assay: COLDER inhibition assay, BAEE substrate, with or without 1 h preincubation; type: biochemical; details: peptide 0.003 µM, T=0, values starred; read-out: PADI4 activity normalised to 0.1% DMSO
Sequence (Q9UM07 whole entry): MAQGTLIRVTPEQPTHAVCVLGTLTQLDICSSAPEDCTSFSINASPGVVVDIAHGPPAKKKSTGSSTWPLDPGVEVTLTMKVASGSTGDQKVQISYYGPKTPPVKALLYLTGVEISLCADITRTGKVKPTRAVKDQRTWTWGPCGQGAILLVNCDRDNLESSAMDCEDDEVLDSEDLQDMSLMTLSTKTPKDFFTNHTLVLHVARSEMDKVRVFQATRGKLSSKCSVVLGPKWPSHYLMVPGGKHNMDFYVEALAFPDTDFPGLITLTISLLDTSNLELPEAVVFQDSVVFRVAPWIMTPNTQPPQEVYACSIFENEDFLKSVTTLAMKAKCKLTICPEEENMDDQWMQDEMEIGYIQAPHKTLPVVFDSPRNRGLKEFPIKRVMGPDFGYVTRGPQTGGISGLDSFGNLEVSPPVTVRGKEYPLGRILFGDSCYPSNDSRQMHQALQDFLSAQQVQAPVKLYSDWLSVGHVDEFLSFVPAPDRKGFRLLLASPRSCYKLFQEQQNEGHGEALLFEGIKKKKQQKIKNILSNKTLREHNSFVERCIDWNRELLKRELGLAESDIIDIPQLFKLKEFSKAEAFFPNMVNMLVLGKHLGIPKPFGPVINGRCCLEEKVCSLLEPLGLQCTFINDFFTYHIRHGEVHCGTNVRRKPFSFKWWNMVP
Where a SMILES comes first, the peptide text is derived from it. Bridges are numbered along the chain shown (N, C = ends). [ ]: non-standard residue; d: D form. Orn(fluoroacetimidoyl) = N=C(CF)NCCC[C@H](N)C(=O)O
readoutKind: remaining activity at 0.003 µM (%)
Value expressed in %; do not type the unit.

(Q) Specify reported remaining activity at 0.003 µM for the molecule shown: CC[C@H](C)[C@H](NC(=O)[C@H](Cc1c[nH]c2ccccc12)NC(=O)[C@H](CCC(=O)O)NC(=O)[C@@H]1CSCC(=O)N[C@H](Cc2ccc(O)cc2)C(=O)N[C@@H](C(C)C)C(=O)N[C@@H](Cc2ccc(O)cc2)C(=O)N[C@@H](CCCNC(=N)CF)C(=O)N[C@@H](CC(=O)O)C(=O)N1)C(=O)N[C@@H](CC(N)=O)C(=O)N[C@@H](CCCNC(=N)N)C(=O)N[C@@H](C)C(=O)NCC(N)=O [cP4_165, yVY(2)DCEWINRAG] ({CH2CO}-[dY]VY[Orn(fluoroacetimidoyl)]DCEWINRAG-NH2; thioether N-6)
(A) 97.2

(Q) Name the recorded remaining activity at 0.003 µM of the item N=C(N)NCCC[C@@H]1NC(=O)[C@H](CCCCN)NC(=O)[C@H](CC(N)=O)NC(=O)[C@H](Cc2ccccc2)NC(=O)[C@H](CC(=O)O)NC(=O)[C@H](Cc2c[nH]c3ccccc23)NC(=O)[C@H](CC(N)=O)NC(=O)[C@H](CCCNC(=N)CF)NC(=O)[C@H](Cc2ccc(O)cc2)NC(=O)[C@H](Cc2c[nH]c3ccccc23)NC(=O)[C@@H](Cc2ccc(O)cc2)NC(=O)CSC[C@@H](C(=O)NCC(N)=O)NC1=O [cP4_10, yWY(2)NWDFNKRCG] ({CH2CO}-[dY]WY[Orn(fluoroacetimidoyl)]NWDFNKRCG-NH2; thioether N-12) in your answer.
(A) 93.1

(Q) Kindly indicate its recorded remaining activity at 0.003 µM. Item: CC(C)[C@@H]1NC(=O)[C@@H](Cc2ccc(O)cc2)NC(=O)CSC[C@@H](C(=O)NCC(N)=O)NC(=O)[C@H](Cc2ccc(O)cc2)NC(=O)[C@H](CCCCN)NC(=O)[C@H](Cc2c[nH]c3ccccc23)NC(=O)[C@H](CCC(=O)O)NC(=O)[C@H](CCCCN)NC(=O)[C@H](CCCNC(=N)CF)NC(=O)[C@H](CO)NC(=O)[C@H](Cc2ccc(O)cc2)NC1=O [cP4_7, yVYS(2)KEWKYCG] ({CH2CO}-[dY]VYS[Orn(fluoroacetimidoyl)]KEWKYCG-NH2; thioether N-11)
(A) 99.1

---

Exercise: for every item that follows, state its recorded IC50.
molecular target: PADI4 (Homo sapiens, UniProt Q9UM07); construct: His6; made in house; test: COLDER inhibition assay, BAEE substrate, with or without 1 h preincubation; format: biochemical; conditions: COLDER, no preincubation of peptide and PADI4, 10 mM CaCl2; read-out: IC50 Values 0 h preincubation
*1 amine or outer side, *2 acyl side, *3 side chain or, on linkers, in order; H or OH if unused. Where a SMILES comes first, the peptide text is derived from it. Bridges are numbered along the chain shown (N, C = ends). [ ]: non-standard residue; d: D form. Orn(fluoroacetimidoyl) = N=C(CF)NCCC[C@H](N)C(=O)O; X1 = N=C(CCl)NCCC[C@H](N[*:1])C(=O)[*:2]
Form entry: value (µM) — number only.

(Q) For N=C(N)NCCC[C@@H]1NC(=O)[C@H](CCCCN)NC(=O)[C@H](CC(N)=O)NC(=O)[C@H](Cc2ccccc2)NC(=O)[C@H](CC(=O)O)NC(=O)[C@H](Cc2c[nH]c3ccccc23)NC(=O)[C@H](CC(N)=O)NC(=O)[C@H](CCCNC(=N)CF)NC(=O)[C@H](Cc2ccc(O)cc2)NC(=O)[C@H](Cc2c[nH]c3ccccc23)NC(=O)[C@@H](Cc2ccc(O)cc2)NC(=O)CSC[C@@H](C(=O)NCC(N)=O)NC1=O [cP4_10, yWY(2)NWDFNKRCG] ({CH2CO}-[dY]WY[Orn(fluoroacetimidoyl)]NWDFNKRCG-NH2; thioether N-12) , write its IC50.
(A) 3.1

(Q) Return the recorded IC50 value; entry: CC(C)C[C@@H]1NC(=O)[C@H](CCCCN)NC(=O)[C@H](CO)NC(=O)[C@H](CO)NC(=O)[C@H](Cc2ccc(O)cc2)NC(=O)[C@H](Cc2c[nH]cn2)NC(=O)[C@H](CCCNC(=N)CF)NC(=O)[C@H](CC(=O)O)NC(=O)[C@H](CC(C)C)NC(=O)[C@@H](Cc2ccc(O)cc2)NC(=O)CSC[C@@H](C(=O)NCC(N)=O)NC(=O)[C@H](Cc2ccc(O)cc2)NC1=O [cP4_15, yLD(2)HYSSKLYCG] ({CH2CO}-[dY]LD[Orn(fluoroacetimidoyl)]HYSSKLYCG-NH2; thioether N-12)
(A) 1.6

(Q) Indicate its recorded IC50; the compound in question is CC[C@H](C)[C@H](NC(=O)[C@H](Cc1c[nH]c2ccccc12)NC(=O)[C@H](CCC(=O)O)NC(=O)[C@@H]1CSCC(=O)N[C@H](Cc2ccc(O)cc2)C(=O)N[C@@H](C(C)C)C(=O)N[C@@H](Cc2ccc(O)cc2)C(=O)N[C@@H](CCCNC(=N)CF)C(=O)N[C@@H](CC(=O)O)C(=O)N1)C(=O)N[C@@H](CC(N)=O)C(=O)N[C@@H](CCCNC(=N)N)C(=O)N[C@@H](C)C(=O)NCC(N)=O [cP4_165, yVY(2)DCEWINRAG] ({CH2CO}-[dY]VY[Orn(fluoroacetimidoyl)]DCEWINRAG-NH2; thioether N-6)
(A) 11.8

(Q) Please report IC50 for the following compound: N=C(N)NCCC[C@@H]1NC(=O)[C@H](CCCNC(=N)CCl)NC(=O)[C@H](CC(=O)O)NC(=O)[C@H](Cc2ccc(O)cc2)NC(=O)[C@H](CCCCN)NC(=O)[C@H](CO)NC(=O)[C@@H](Cc2ccc(O)cc2)NC(=O)CSC[C@@H](C(=O)NCC(N)=O)NC(=O)[C@H](CC(=O)O)NC(=O)[C@H](CCCNC(=N)N)NC(=O)[C@@H]2CCCN2C(=O)[C@H](CO)NC1=O [Cl4] ({CH2CO}-[dY]SKYD[X1]RSPRDCG-NH2; thioether N-12)
(A) 8.2

(Q) Tell me IC50 reported for CC(C)[C@@H]1NC(=O)[C@@H](Cc2ccc(O)cc2)NC(=O)CSC[C@@H](C(=O)NCC(N)=O)NC(=O)[C@H](Cc2ccc(O)cc2)NC(=O)[C@H](CCCCN)NC(=O)[C@H](Cc2c[nH]c3ccccc23)NC(=O)[C@H](CCC(=O)O)NC(=O)[C@H](CCCCN)NC(=O)[C@H](CCCNC(=N)CF)NC(=O)[C@H](CO)NC(=O)[C@H](Cc2ccc(O)cc2)NC1=O [cP4_7, yVYS(2)KEWKYCG] ({CH2CO}-[dY]VYS[Orn(fluoroacetimidoyl)]KEWKYCG-NH2; thioether N-11)
(A) 8

---

molecular target: PADI4 (Homo sapiens, UniProt Q9UM07); construct: His6; made in house; test: COLDER inhibition assay, BAEE substrate, with or without 1 h preincubation; format: biochemical; details: peptide 0.01 µM, T=0, values starred; read-out: PADI4 activity normalised to 0.1% DMSO
Where a SMILES comes first, the peptide text is derived from it. Bridges are numbered along the chain shown (N, C = ends). [ ]: non-standard residue; d: D form. Orn(fluoroacetimidoyl) = N=C(CF)NCCC[C@H](N)C(=O)O
readoutKind: remaining activity at 0.01 µM (%)
Number only, in %; omit the unit.

(Q) Answer with the recorded remaining activity at 0.01 µM for the molecule listed here: N=C(N)NCCC[C@@H]1NC(=O)[C@H](Cc2ccc(O)cc2)NC(=O)[C@H](Cc2c[nH]cn2)NC(=O)[C@H](CCCNC(=N)CF)NC(=O)[C@H](CC(=O)O)NC(=O)[C@H](CCCNC(=N)N)NC(=O)[C@@H](Cc2ccc(O)cc2)NC(=O)CSC[C@@H](C(=O)NCC(N)=O)NC(=O)[C@H](Cc2ccc(O)cc2)NC(=O)[C@H](CCCCN)NC(=O)[C@@H]2CCCN2C(=O)[C@H](Cc2c[nH]cn2)NC1=O [PADI4_3_H4(2), yRD(2)HYRHPKYCG] ({CH2CO}-[dY]RD[Orn(fluoroacetimidoyl)]HYRHPKYCG-NH2; thioether N-12)
(A) 100

---

molecular target: PADI4 (Homo sapiens, UniProt Q9UM07); construct: His6; made in house; assay: Incubation time-dependent COLDER assay IC50(t), Krippendorff fit; format: biochemical; conditions: Krippendorff fit of IC50 vs time
Where a SMILES comes first, the peptide text is derived from it. Bridges are numbered along the chain shown (N, C = ends). [ ]: non-standard residue; d: D form. Orn(fluoroacetimidoyl) = N=C(CF)NCCC[C@H](N)C(=O)O
readoutKind: Ki (µM)
Numeric answer only, unit µM assumed.

(Q) Report Ki from PADI4 (Homo sapiens, UniProt Q9UM07) testing of CC[C@H](C)[C@H](NC(=O)[C@H](Cc1c[nH]c2ccccc12)NC(=O)[C@H](CCC(=O)O)NC(=O)[C@@H]1CSCC(=O)N[C@H](Cc2ccc(O)cc2)C(=O)N[C@@H](C(C)C)C(=O)N[C@@H](Cc2ccc(O)cc2)C(=O)N[C@@H](CCCNC(=N)CF)C(=O)N[C@@H](CC(=O)O)C(=O)N1)C(=O)N[C@@H](CC(N)=O)C(=O)N[C@@H](CCCNC(=N)N)C(=O)N[C@@H](C)C(=O)NCC(N)=O [cP4_165, yVY(2)DCEWINRAG] ({CH2CO}-[dY]VY[Orn(fluoroacetimidoyl)]DCEWINRAG-NH2; thioether N-6)
(A) 8.9

All values here come from paper PMC11659602.
